System: HEK293 cells overexpressing APOL1 G2
Assay: APOL1 G2 HEK293 cell rescue assay (reversal of cell death caused by overexpression of APOL1)
Assay type: cell-based
Conditions: Homo sapiens, HEK293, HEK293 overexpressing APOL1 G2; geometric mean of at least 2 assay runs; † = single assay run
Reported values of EC50 for individual entries

# compound, assay-target, EC50 [nM]
measured = [
    ("O=C1CCC2c3ccc(OCCN4CCC5(CC4)C(=O)Nc4ccc(Cl)cc45)cc3CCN12 (single isomer, unassigned) [Compound 122]", "HEK293 cells overexpressing APOL1 G2", 87.5),
    ("CC(=O)N1CCCc2cc(OCCN3CCC4(CC3)C(=O)Nc3ccc(Cl)cc34)ccc21", "HEK293 cells overexpressing APOL1 G2", 105),
    ("C[C@]1(O)C[C@@H](n2c(=O)cc(C(F)(F)F)c3cc(OCCN4CCC5(CC4)C(=O)Nc4ccc(C(F)F)cc45)cnc32)C1", "HEK293 cells overexpressing APOL1 G2", 90.2),
    ("C[C@]1(O)C[C@@H](n2cnc3cc(OCCN4CCC5(CC4)C(=O)Nc4ccc(Cl)cc45)cnc32)C1", "HEK293 cells overexpressing APOL1 G2", 87.7),
]

====

Reported values of AC50 for individual entries
Target: APOL1 G2 (Homo sapiens, UniProt O14791, DEL388-389)
Construct: expressed in transfected cells; host or cells: HEK293 T-REx clonal line stably expressing GCaMP6f (HEK T-REx/GCaMP6f/APOL1 G2 K6.3), doxycycline induced
Sequence (O14791 with tags, fused parts or gaps DEL388-389): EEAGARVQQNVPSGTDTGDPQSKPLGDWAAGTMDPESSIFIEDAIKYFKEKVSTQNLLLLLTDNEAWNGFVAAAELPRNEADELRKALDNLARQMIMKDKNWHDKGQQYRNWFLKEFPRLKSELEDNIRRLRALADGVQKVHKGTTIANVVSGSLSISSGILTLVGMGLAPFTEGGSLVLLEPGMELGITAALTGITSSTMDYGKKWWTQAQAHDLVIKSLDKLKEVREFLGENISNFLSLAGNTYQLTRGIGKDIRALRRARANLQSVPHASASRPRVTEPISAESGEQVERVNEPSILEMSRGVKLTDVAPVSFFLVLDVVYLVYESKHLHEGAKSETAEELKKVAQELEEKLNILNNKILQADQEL
Experiment: APOL1-mediated calcium transport (calcium influx) assay, HEK T-REx/GCaMP6f/APOL1 G2 K6.3 cells, FLIPR TETRA
Type: cell-based
Details: prevention of calcium influx; geometric mean of at least 2 assay runs; † = average of a technical replicate from a single assay run

# input-smiles, units-text, AC50
rows = [
    ("C[C@]1(O)C[C@@H](n2ccc3cc(OCCN4CCC5(CC4)C(=O)Nc4ccc(C#N)cc45)cnc32)C1", "µM", 0.623),
    ("Cc1nc(-c2ccc(OCCN3CCC4(CC3)C(=O)N(C)c3ccccc34)cc2)no1", "µM", 0.142),
    ("N#Cc1ccc2c(c1)C1(CCN(CCOc3ccc(S(=O)(=O)C(F)F)cc3)CC1)C(=O)N2", "µM", 0.524),
    ("C[C@]1(O)C[C@@H](N2C(=O)NCc3cc(OCCN4CCC5(CC4)C(=O)Nc4ccc(Cl)cc45)cc(C(F)(F)F)c32)C1", "µM", 1.01),
]
